Molecular target: KCNQ 2/3 channels (Homo sapiens, UniProt O43525+O43526)
Test: KCNQ 2/3 channel activation, thallium flux FLIPR assay (BTC-AM dye)
Settings: HEK293 cells stably expressing human KCNQ2 and KCNQ3 subunits; thallium-induced fluorescence, 4 min compound incubation
Method: The following example describes the assay that can be used to identify compounds that activate KCNQ 2/3 channels. HEK293 cells stably expressing human KCNQ2 and KCNQ3 subunits were seeded in 96-well, black-walled, clear-bottomed, poly-D-lysine coated plates (BD Biosciences, Bedford, Mass.) at a density of 1×10^5 cells per well 24 hours before the assay. […] The fluorescence signal was initiated by adding 100 μL of assay buffer containing 6 mM TlNO3 and 10 mM K2SO4. […]
Could you mark each record label 1 if its EC50 falls strictly under 3000 nM, and label 0 if it equals or exceeds it?

Input line: Lab log: compare recorded EC50 with 3000 nM; is it strictly lower for C[C@@H]1CN(c2nn(NC(=O)CC(C)(C)c3ccccc3)c(=O)c3ccccc23)C[C@H](C)O1 ?
Output line: label 1
